Test: S16 Schwann cell viability assay (CellTiter-Glo assay) (AID 624031); also: nearly all actives have a fitted effect of over 70% in size
Conditions: S16 rat Schwann cells viability, 24 h; series mostly up to 57.5 µM
Inconclusive results are not listed. Activity calls are given as the source filed them. Calls follow the shape of the dose curve; as a rule, active = well fitted cell-killing curve with a large enough effect; inconclusive = small, poorly fitted or top-dose-only effect, or effect the other way; inactive = flat fitted curve, though single readings scatter.
Labels: 1 (yes) for active, 0 (no) for inactive

MOLECULE	DISCRETE LABEL
O=C(NCCc1c[nH]c2ccccc12)c1cccnc1	0 (no)
Cc1cc2c(OCC(CNC(C)(C)C)OC(=O)c3ccccc3)cccc2[nH]1 (centres undefined)	0 (no)
O=C(O)C(Cc1cc(I)c(O)c(I)c1)c1ccccc1 (centres undefined)	0 (no)
CC(C)CCCC(C)N (centres undefined)	0 (no)
O=C(c1ccc(F)cc1)C1CCN(CCn2c(=S)[nH]c3ccccc3c2=O)CC1	0 (no)
CCC(C(=O)OCCOCCN(CC)CC)c1ccccc1 (centres undefined)	0 (no)
Nc1ccc(C(=O)NCC(=O)O)cc1	0 (no)
CCCCN=C(N)N=C(N)N	0 (no)
CC1CCc2c(N3CCC(O)CC3)c(F)cc3c(=O)c(C(=O)O)cn1c23 (centres undefined)	0 (no)
CC(=O)Nc1ccc(OC(=O)c2ccccc2OC(C)=O)cc1	0 (no)
CN1CCN(C2=Nc3cc(F)ccc3Cc3ccccc32)CC1	0 (no)
CC(C)Cc1ccc(CC(=O)O)cc1	0 (no)
c1ccc(-c2nc[nH]c2-c2ccccc2)cc1	0 (no)
CCc1oc2ccccc2c1C(=O)c1cc(I)c(O)c(I)c1	0 (no)
C[C@@H](O)[C@H]1C(=O)N2C(C(=O)O)=C(S[C@@H]3CN[C@H](CNS(N)(=O)=O)C3)[C@H](C)[C@H]12	0 (no)
NS(=O)(=O)c1cc(C(=O)O)cc(N2CCCC2)c1Oc1ccccc1	0 (no)
CN1CCN(c2c(F)cc3c(=O)c(C(=O)O)cn4c3c2SCC4)CC1	0 (no)
CC[N+](C)(CC)CCOC(=O)C(O)(c1ccccc1)C1CCCCC1 (centres undefined)	0 (no)
NS(=O)(=O)Cc1noc2ccccc12	0 (no)
Cc1ccc(-c2ncc(Cl)cc2-c2ccc(S(C)(=O)=O)cc2)cn1	0 (no)
Oc1ccccc1C=NCc1ccccc1	0 (no)
CCCCCCCCCCCCCC(=O)OC(C)C	0 (no)
CNCCCCOc1ccccc1Cc1ccccc1	1 (yes)
C[N+]1(C)CCC(=C(c2ccccc2)c2ccccc2)CC1	0 (no)
CC(=O)OC[C@H]1O[C@@H](n2ncc(=O)[nH]c2=O)[C@H](OC(C)=O)[C@@H]1OC(C)=O	0 (no)
Cc1c[nH]c2ccccc12	0 (no)
CC(=O)O[C@]1(C(C)=O)CC[C@H]2[C@@H]3C=C(Cl)C4=CC(=O)CC[C@]4(C)[C@H]3CC[C@@]21C	0 (no)
CCCc1ncc(C[n+]2ccccc2C)c(N)n1	0 (no)
C#C[C@]1(O)CC[C@H]2[C@@H]3CCC4=Cc5oncc5C[C@]4(C)[C@H]3CC[C@@]21C	0 (no)
C#C[C@]1(O)CC[C@H]2[C@@H]3CCC4=CC(=O)CC[C@@H]4[C@H]3CC[C@@]21CC	0 (no)
C/C=C/C=N/NC(=O)c1ccncc1	0 (no)
CCNC(=O)NCc1cccc(Cl)c1	0 (no)
c1ccc(CC2=NCCN2)cc1	0 (no)
O[C@@H](c1cc(C(F)(F)F)nc2c(C(F)(F)F)cccc12)[C@H]1CCCCN1	1 (yes)
CCN(CC)CCNc1ccc(CO)c2sc3ccccc3c(=O)c12	0 (no)
O=C1C(O)=C(O)C(=O)C(O)=C1O	0 (no)
CCCCc1cc2ccccc2c(OCCN(C)C)n1	0 (no)
COc1ccc(C(=O)c2ccccc2)c(O)c1	0 (no)
O=C(O)Cc1csc(-c2ccc(Cl)cc2)n1	0 (no)
NS(=O)(=O)c1ccc(Cl)c(S(N)(=O)=O)c1	0 (no)
OC1C(O)C(O)C(O)C(O)C1O (centres undefined)	0 (no)
CCCCCCCCNC(C)C(O)c1ccc(SC(C)C)cc1 (centres undefined)	1 (yes)
N/C(=N\N=C\c1ccc(Cl)cc1)N/N=C/c1ccc(Cl)cc1	0 (no)
CCOc1ccc(NC(C)=O)cc1	0 (no)
Oc1c(Cl)cc(Cl)c(Cl)c1Cc1c(O)c(Cl)cc(Cl)c1Cl	0 (no)
Cc1cccc(C)c1NC(=O)CN1CCCCCC1	0 (no)
NC(=O)C1(N2CCCCC2)CCN(CCCC(=O)c2ccc(F)cc2)CC1	0 (no)
Clc1cccc(C(c2ccc3nc[nH]c3c2)n2ccnc2)c1 (centres undefined)	0 (no)
COc1cc(NS(=O)(=O)c2ccc(N)cc2)ncn1	0 (no)

Measured values drawn from PubChem BioAssay (NCATS) for this set.
